molecular target: human HER3 receptor on cells (human, UniProt P21860 20-1342); assay: cell-based or functional assay
Sequence (P21860 20-1342): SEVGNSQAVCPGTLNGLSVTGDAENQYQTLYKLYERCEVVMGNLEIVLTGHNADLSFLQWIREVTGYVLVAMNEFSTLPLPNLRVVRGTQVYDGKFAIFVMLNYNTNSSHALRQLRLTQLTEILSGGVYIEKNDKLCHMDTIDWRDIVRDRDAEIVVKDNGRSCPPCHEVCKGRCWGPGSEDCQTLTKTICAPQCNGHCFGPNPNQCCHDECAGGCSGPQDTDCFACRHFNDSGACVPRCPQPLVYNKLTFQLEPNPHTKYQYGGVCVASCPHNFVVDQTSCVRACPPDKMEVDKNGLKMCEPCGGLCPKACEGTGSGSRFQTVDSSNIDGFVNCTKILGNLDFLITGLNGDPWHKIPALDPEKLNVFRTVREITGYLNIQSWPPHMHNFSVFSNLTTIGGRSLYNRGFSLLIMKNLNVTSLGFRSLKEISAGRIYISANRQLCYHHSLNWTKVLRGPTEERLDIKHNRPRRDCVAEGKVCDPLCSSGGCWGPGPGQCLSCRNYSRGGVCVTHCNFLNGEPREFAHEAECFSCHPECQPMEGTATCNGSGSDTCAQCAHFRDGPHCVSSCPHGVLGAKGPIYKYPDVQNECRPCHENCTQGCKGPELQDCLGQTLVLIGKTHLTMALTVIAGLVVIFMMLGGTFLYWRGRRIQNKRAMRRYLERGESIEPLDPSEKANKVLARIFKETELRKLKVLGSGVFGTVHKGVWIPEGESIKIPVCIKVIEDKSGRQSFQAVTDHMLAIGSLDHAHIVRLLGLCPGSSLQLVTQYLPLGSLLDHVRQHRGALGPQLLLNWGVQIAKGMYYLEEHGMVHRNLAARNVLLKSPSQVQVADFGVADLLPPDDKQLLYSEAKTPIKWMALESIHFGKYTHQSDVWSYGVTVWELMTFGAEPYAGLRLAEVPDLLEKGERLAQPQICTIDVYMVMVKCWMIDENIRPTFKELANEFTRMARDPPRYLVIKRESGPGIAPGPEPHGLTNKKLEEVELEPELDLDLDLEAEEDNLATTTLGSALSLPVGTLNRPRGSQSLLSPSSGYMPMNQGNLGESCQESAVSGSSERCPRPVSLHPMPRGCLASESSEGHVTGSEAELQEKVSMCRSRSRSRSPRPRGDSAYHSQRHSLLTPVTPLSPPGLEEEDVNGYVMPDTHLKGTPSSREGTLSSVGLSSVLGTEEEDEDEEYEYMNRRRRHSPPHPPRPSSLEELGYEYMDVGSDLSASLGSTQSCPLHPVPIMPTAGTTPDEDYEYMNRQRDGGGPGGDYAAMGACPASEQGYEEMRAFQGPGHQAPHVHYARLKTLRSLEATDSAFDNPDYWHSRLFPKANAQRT
Quick reference for pERK ½ inhibition, EC50 (nM) among some binders
Could you kindly put the unit after your number?

Known results for binders:
BINDER	READOUT TYPE	OBSERVED MEASUREMENT
Rab189 (antibody, V domains shown, also called Rab189 monoclonal antibody) VH: QESLEESGGDLVKPEGTLTLTCKASGIGFGYYYYICWVRQAPGKGLEWIACIYTGISDSTYYATWAKGRFAISKTSSTTVTLQMTSLTAADTATYFCARSDPYYTTTYTNTYPTYWNLWGPGTLVTVSS VL: CAFELTQTPSSVEAAVGGTVTIKCQASQSINNYLAWYQQKTGQPPKLLIYRASTLESGVPSRFKGSGSGTQFTLTISDLECADAATYYCQSYYYSSSNNYYNAFGGGTEVVVK	pERK ½ inhibition, EC50 (nM)	5.5 nM
Rab1210 (antibody, V domains shown, also called Rab1210 monoclonal antibody) VH: QEQLEESGGGLVQPEGSLTLTCTASGFSFSSSYWICWVRQAPGKGLELIGYIWSGNGATYYASWAKGRFTISKTSSTTVTLQMTSVTATDTATYFCARNYDASGYGIFHLWGPGTLVTVSS VL: AVVMTQTPASVSAAVGGTVTINCQASQSIVSSYLSWYQQKTGQPPKLLIYSASKLASGVPPRFSGSGSGTQFTLTISGVQCDDAATYYCLYGVDSSNIDNAFGGGTEVVVK	pERK ½ inhibition, EC50 (nM)	1.3 nM
Rab774 (antibody, V domains shown, also called Rab774 monoclonal antibody) VH: QSVEESGGRLVTPGTPLTLTCTVSGIDLSTYAMTWVRRAPGKGLEWLGIINRSSKTYLTDWARGRFTISKTSTTVDLKISSPTTEDTATYFCGRVMSPYSVAGGDLWGPGTLVTVSS VL: QPVLTQSPSASAALGASAKLTCILSSDLSDYTIDWYKHQQGEAPRYLMQLRSDGSYTKGTGVPDRFSGSSSGADRYLVISSVQADDEADYYCGLPYSVEYVFGGGTQLTVT	pERK ½ inhibition, EC50 (nM)	3.8 nM

Now, please, on to the next binder.
# return recorded pERK ½ inhibition, EC50 (nM) for entry Rab46 (antibody, V domains shown, also called Rab46 monoclonal antibody) VH: EEQLVESGGGLVQPEGSLTLTCTASGFSFSASYYIYWVRQAPGKGLEGIAYITGDDDKRTYYANWAKGRFTISKTSTTVTLQMTSLTAADTATYFCTRNLPDELWGPGTLVTVSS VL: QAVVTQTPSSVSAAVGGTVTISCQSSESVYSYKNLAWYQQKPGQPPRLLIWQASRLSSGVSSRFSGSGSGTQFTLTISGVQCDDAATYYCQGTYYSSAWDFVFGGGTEVMVE
6.2 nM
